system: ABL1(T315I)-nonphosphorylated; experiment: KINOMEscan kinase binding assay; settings: at 1 μM
Please provide measured % Ctrl for the entries that follow.

Entry C[C@@H]1COCc2nn(C)cc2-c2cc(Cl)c3c(c2)/C(=C/c2[nH]ccc2C(=O)N1)C(=O)N3 [Cpd. 4] : % Ctrl on ABL1(T315I)-nonphosphorylated = 100%

Sample Cc1cc2c([nH]1)/C=C1\C(=O)Nc3ccc(cc31)-c1c(nn(C)c1C)OCCCN(C)C2=O [Cpd. 1] , system: ABL1(T315I)-nonphosphorylated. Its % Ctrl is 83%

I looked up Cc1cc2c([nH]1)/C=C1\C(=O)Nc3c(Cl)cc(cc31)-c1cn(C)nc1COC[C@@H](C)N(C)C2=O [Cpd. 5] and its % Ctrl for ABL1(T315I)-nonphosphorylated was 100%

Measured % Ctrl (ABL1(T315I)-nonphosphorylated), entry Cc1cc2c([nH]1)/C=C1\C(=O)Nc3c(Cl)cc(cc31)-c1cn(C)nc1COC[C@@H](C)NC2=O [Cpd. 3] : 100%

The measured % Ctrl that Cc1cc2c([nH]1)/C=C1\C(=O)Nc3ccc(cc31)-c1c(nn(C)c1C)COCCN(C)C2=O [Cpd. 2] showed for ABL1(T315I)-nonphosphorylated is 17%

src = patent US20250074920A1
